Value source: patent US20070117743A1

- Tested on: LoVo
- testDetails: SRB colorimetric assay of cell growth and viability, LoVo
- Type: cell-based, human
- runConditions: 48 hours exposure
Where a SMILES comes first, the peptide text is derived from it. Bridges are numbered along the chain shown (N, C = ends). [ ]: non-standard residue; d: D form. The star is where a group is joined. d(aIle) = CC[C@H](C)[C@@H](N)C(=O)O; d(aThr) = C[C@@H](O)[C@@H](N)C(=O)O; Hexanoyl(5-Me) = CC(C)CCCC(=O)*; Orn = NCCC[C@H](N)C(=O)O; Dhb = C/C=C(\N)C(=O)O
metric: GI50 (µM)
// note: answer is a bare numeric in µM

Guide cases for GI50, answers given:
compound: C/C=C1\NC(=O)[C@H](Cc2ccccc2)NC(=O)[C@@H](C(C)C)NC(=O)[C@@H]([C@@H](C)CC)NC(=O)[C@H](NC(=O)[C@H](NC(=O)[C@H](CCC(=O)O)NC(=O)[C@H]2CCCN2C(=O)[C@H](NC(=O)[C@@H](NC(=O)[C@@H](NC(=O)[C@H](NC(=O)CCCC(C)C)C(C)C)[C@@H](C)O)C(C)C)C(C)C)[C@@H](C)CC)[C@@H](C)OC(=O)[C@H](C(C)C)NC1=O [Compound 4, [Glu^8]-KF] ({Hexanoyl(5-Me)}-[dV]TV[dV][dP]E[d(aIle)][d(aThr)][d(aIle)][dV]F[Dhb]V; ester 8-C)
outputUnit: µM
GI50: 0.348
//
compound: C/C=C1\NC(=O)[C@H](Cc2ccccc2)NC(=O)[C@@H](C(C)C)NC(=O)[C@@H]([C@@H](C)CC)NC(=O)[C@H](NC(=O)[C@H](NC(=O)[C@H](CCCN)NC(=O)[C@H]2CCCN2C(=O)[C@H](NC(=O)[C@@H](NC(=O)[C@@H](NC(=O)[C@H](NC(=O)CCCCC(C)=O)C(C)C)[C@@H](C)O)C(C)C)C(C)C)[C@@H](C)CC)[C@@H](C)OC(=O)[C@H](C(C)C)NC1=O [Compound 27, [6-OHep^14]-KF]
outputUnit: µM
GI50: 3.5
//
compound: C/C=C1\NC(=O)[C@H](Cc2ccccc2)NC(=O)[C@@H](C(C)C)NC(=O)[C@@H]([C@@H](C)CC)NC(=O)[C@H](NC(=O)[C@H](NC(=O)[C@H](CCCN)NC(=O)[C@H]2CCCN2C(=O)[C@H](NC(=O)[C@@H](NC(=O)[C@@H](NC(=O)[C@@H](CC2CCCCC2)NC(=O)CCCC(C)C)[C@@H](C)O)C(C)C)C(C)C)[C@@H](C)CC)[C@@H](C)OC(=O)[C@H](C(C)C)NC1=O [Compound 8, [D-Cha^13]-KF]
outputUnit: µM
GI50: 1.01

[ask] Query the reported GI50 for LoVo; item: C/C=C1\NC(=O)[C@H](Cc2ccccc2)NC(=O)[C@@H](C(C)C)NC(=O)[C@@H]([C@@H](C)CC)NC(=O)[C@H](NC(=O)[C@H](NC(=O)[C@H](CCCN)NC(=O)[C@H]2CCCN2C(=O)[C@H](NC(=O)CNC(=O)[C@@H](NC(=O)[C@H](NC(=O)CCCC(C)C)C(C)C)[C@@H](C)O)C(C)C)[C@@H](C)CC)[C@@H](C)OC(=O)[C@H](C(C)C)NC1=O [Compound 42, [Gly^11]-KF] ({Hexanoyl(5-Me)}-[dV]TG[dV][dP][Orn][d(aIle)][d(aThr)][d(aIle)][dV]F[Dhb]V; ester 8-C)
[reply] 3.87

----------
- System: IGROV-1
- testDetails: SRB colorimetric assay of cell growth and viability, IGROV-1
- Assay type: cell-based, human
- runConditions: 48 hours exposure, SRB
metric: LC50 (concentration causing 50% net cell killing) (µM)
// note: answer is a bare numeric in µM

[ask] Query the reported LC50 (concentration causing 50% net cell killing) for IGROV-1; item: C/C=C1\NC(=O)[C@H](Cc2ccccc2)NC(=O)[C@@H](C(C)C)NC(=O)[C@@H]([C@@H](C)CC)NC(=O)[C@H](NC(=O)[C@H](NC(=O)[C@H](CCCN)NC(=O)[C@H]2CCCCN2C(=O)[C@H](NC(=O)[C@@H](NC(=O)[C@@H](NC(=O)[C@H](NC(=O)CC[C@@H](C)CC)C(C)C)[C@@H](C)O)C(C)C)C(C)C)[C@@H](C)CC)[C@@H](C)OC(=O)[C@H](C(C)C)NC1=O [Compound 60, [D-Pip^9, (4S)-MeHex^14]-KF]
[reply] 6.28

----------
Overview of recorded CC50 for various compounds
- System: SK-MEL-28
- testDetails: SRB colorimetric assay of cell growth and viability, SK-MEL-28
- Assay type: cell-based, human
- runConditions: 48 hours exposure, SRB; read-out: LC50 MEL-28
Where a SMILES comes first, the peptide text is derived from it. Bridges are numbered along the chain shown (N, C = ends). [ ]: non-standard residue; d: D form. The star is where a group is joined. d(aIle) = CC[C@H](C)[C@@H](N)C(=O)O; d(aThr) = C[C@@H](O)[C@@H](N)C(=O)O; Hexanoyl(5-Me) = CC(C)CCCC(=O)*; Orn = NCCC[C@H](N)C(=O)O; Aib = CC(C)(N)C(=O)O

compound: C/C=C1\NC(=O)[C@H](Cc2ccc(Cl)c(Cl)c2)NC(=O)[C@@H](C(C)C)NC(=O)[C@@H]([C@@H](C)CC)NC(=O)[C@H](NC(=O)[C@H](NC(=O)[C@H](CCCN)NC(=O)[C@H]2CCCN2C(=O)[C@H](NC(=O)[C@@H](NC(=O)[C@@H](NC(=O)[C@H](NC(=O)CC[C@@H](C)CC)C(C)C)[C@@H](C)O)C(C)C)C(C)C)[C@@H](C)CC)[C@@H](C)OC(=O)[C@H](C(C)C)NC1=O [Compound 70, [Phe(3,4-Cl2)^3, (4S)-MeHex^14]-KF]
measuredOn: SK-MEL-28
CC50: 0.475 µM
--
compound: C/C=C1\NC(=O)[C@H](Cc2ccccc2)NC(=O)[C@@H](C(C)C)NC(=O)[C@@H]([C@@H](C)CC)NC(=O)[C@H](NC(=O)[C@H](NC(=O)[C@H](CCCN)NC(=O)[C@H]2CCCN2C(=O)[C@H](NC(=O)[C@@H](NC(=O)[C@@H](NC(=O)[C@H](NC(=O)CC[C@@H](C)CC)C(C)C)[C@@H](C)OC(=O)C(F)(F)F)C(C)C)C(C)C)[C@@H](C)CC)[C@@H](C)OC(=O)[C@H](C(C)C)NC1=O [Compound 94]
measuredOn: SK-MEL-28
CC50: 3.01 µM
--
compound: C/C=C1\NC(=O)[C@H](Cc2ccccc2)NC(=O)[C@@H](C(C)C)NC(=O)[C@@H]([C@@H](C)CC)NC(=O)[C@H](NC(=O)[C@H](NC(=O)[C@H](CCCNC(=O)CCCC[C@@H]2SC[C@@H]3NC(=O)N[C@@H]32)NC(=O)[C@H]2CCCN2C(=O)[C@H](NC(=O)[C@@H](NC(=O)[C@@H](NC(=O)[C@H](NC(=O)CCCC(C)C)C(C)C)[C@@H](C)O)C(C)C)C(C)C)[C@@H](C)CC)[C@@H](C)OC(=O)[C@H](C(C)C)NC1=O [Compound 99, [Orn(Biot)^8]-Kahalalide F]
measuredOn: SK-MEL-28
CC50: 3.54 µM

[ask] Reported CC50, compound CC[C@H](C)[C@@H](NC(=O)[C@H](CCCN)NC(=O)[C@H]1CCCN1C(=O)[C@H](NC(=O)[C@@H](NC(=O)[C@@H](NC(=O)[C@H](NC(=O)CCCC(C)C)C(C)C)[C@@H](C)O)C(C)C)C(C)C)C(=O)N[C@H]1C(=O)N[C@H]([C@@H](C)CC)C(=O)N[C@H](C(C)C)C(=O)N[C@@H](Cc2ccccc2)C(=O)NC(C)(C)C(=O)N[C@@H](C(C)C)C(=O)O[C@@H]1C [Compound 66, [Aib^2]-KF] ({Hexanoyl(5-Me)}-[dV]TV[dV][dP][Orn][d(aIle)][d(aThr)][d(aIle)][dV]F[Aib]V; ester 8-C) : ____
[reply] ≥ 6.76 µM

[ask] Reported CC50, compound C/C=C1\NC(=O)[C@H](Cc2ccc(I)cc2)NC(=O)[C@@H](C(C)C)NC(=O)[C@@H]([C@@H](C)CC)NC(=O)[C@H](NC(=O)[C@H](NC(=O)[C@H](CCCN)NC(=O)[C@H]2CCCN2C(=O)[C@H](NC(=O)[C@@H](NC(=O)[C@@H](NC(=O)[C@H](NC(=O)CC[C@@H](C)CC)C(C)C)[C@@H](C)O)C(C)C)C(C)C)[C@@H](C)CC)[C@@H](C)OC(=O)[C@H](C(C)C)NC1=O [Compound 72, [Phe(4-I)^3, (4S)-MeHex^14]-KF] : ____
[reply] 1.2 µM

[ask] Reported CC50, compound C/C=C1\NC(=O)[C@H](Cc2ccccc2)NC(=O)[C@@H](C(C)C)NC(=O)[C@@H]([C@@H](C)CC)NC(=O)[C@H](NC(=O)[C@H](NC(=O)[C@H](CCCC[N+](C)(C)C)NC(=O)[C@H]2CCCN2C(=O)[C@H](NC(=O)[C@@H](NC(=O)[C@@H](NC(=O)[C@H](NC(=O)CC[C@@H](C)CC)C(C)C)[C@@H](C)O)C(C)C)C(C)C)[C@@H](C)CC)[C@@H](C)OC(=O)[C@H](C(C)C)NC1=O [Compound 93, [N^ε(Me)3-Lys^8, (4S)-MeHex^14]-KF] : ____
[reply] 2.6 µM
